Measured values drawn from PubChem BioAssay (NCI) for this set.

- Test summary: NCI Yeast Anticancer Drug Screen. Data for the cln2 rad14 strain (AID 165);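 note: 0% = growth equal to vehicle treated cultures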
- Run parameters: S. cerevisiae cln2 rad14 strain, at 50.0 µM, hits give high values
This is part of a sample that, as a whole, favours compounds with a hit. Of some 79,000 tested, about 15% had one in any assay. Activity calls are given as the source filed them. Cut-off read from the data, not from the text of the source: active = growth inhibition above about 70%; inactive = the rest.
We begin with a simple list: items and their reported growth inhibition.
Measure: growth inhibition

* COc1ccc(Cc2nc3c([nH]2)c(=O)n(C)c(=O)n3C)cc1 | -50.8% (inactive)
* Cc1ccc(/C=C(/C#N)C(N)=O)cc1 | 17.6% (inactive)
* CCCCCCCCCCCCCCCCC1=CC(=O)C=C(OC)C1=O | -36% (inactive)
* COc1c(C(=O)O)[nH]c(=O)[nH]c1=O | -5.65% (inactive)

###

- Test summary: NCI Yeast Anticancer Drug Screen. Data for the cln2 rad14 strain (AID 165);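 note: 0% = growth equal to vehicle treated cultures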
- Run parameters: S. cerevisiae cln2 rad14 strain, at 50.0 µM, hits give high values
This is part of a sample that, as a whole, favours compounds with a hit. Of some 79,000 tested, about 15% had one in any assay.
Quick reference: growth inhibition of the listed items.
Measure: growth inhibition (%)

* COc1ccc(N=Cc2c(O)ccc3ccccc23)cc1 | 0.95
* CC[C@@]1(O)C[C@H](OC2CC(N(C)C)C(OC3CC(O)C(OC4CC(O)C(O)C(C)O4)C(C)O3)C(C)O2)c2c(cc3c(c2O)C(=O)c2c(O)ccc(O)c2C3=O)[C@H]1C(=O)OC (stereo partly drawn) | 4.3
* CCOC(=O)c1nc[nH]c1C(=O)OCC | 11
* COc1cc(C2CC(C)=C(C)CC2C(=O)O)cc(OC)c1OC (stereo not drawn) | 30.1
* O=C(NC1(C(=O)O)CCCC1)c1ccccc1 | -31.7
* Cn1c(=S)[nH]c2sc3c(c2c1=O)CCCCC3 | 6.65
* Cc1csc(NC(=O)C2C3CCC(O3)C2C(=O)O)n1 (stereo not drawn) | 10.4
* C/C(=N/NC(N)=S)c1c[nH]c(=O)[nH]c1=O | -9.6
* CCOC(=O)C/C(C)=N\NS(=O)(=O)c1ccc([N+](=O)[O-])cc1 | -30.1
* CC1(C)CN(Cc2ccccc2)C(C)(C)CN1 | -54.6
* Cc1cc(C)c(NS(=O)c2cccc(C(F)(F)F)c2)c(C)c1 (stereo not drawn) | -9.75
* N#CC1(NC2CCCCC2)CCN(Cc2ccccc2)CC1 | 4.1
* COc1ccc(N2C(=O)C3c4[nH]c5ccccc5c4C4CCC(C(C)(C)C)CC4C3C2=O)c(C)c1 (stereo not drawn) | 17.1
* O=C(Nc1ccccc1SC(=O)OCc1ccccc1)OCc1ccccc1 | 38.6
* O=C(O)CC1CCCNC1 (stereo not drawn) | -18.6
* COc1cc(/C=C(\C#N)c2ccccn2)cc(Br)c1O | 17.2
* COC(=O)CN(C(=O)c1ccc(OC(C)=O)cc1)c1ccccc1 | 9.1
* CNC(=O)OC(COC)CN1CCN(c2ccccc2C)CC1 (stereo not drawn) | -1.25
* O=C(NC/C=C/Br)Oc1cccc2ccccc12 | 36.8
* CC(=O)OCCc1ccccc1C#N | -11.1
* O=C1c2c(nc3ccccc3c2-c2ccccc2)CN1Nc1ccccc1 | 5.65
* O=C(NC(Cc1cccnc1)C(=O)O)c1ccccc1 (stereo not drawn) | -16.4
* Nc1scc[n+]1CCC(=O)[O-] | -13.2

###

- Test summary: NCI Yeast Anticancer Drug Screen. Data for the cln2 rad14 strain (AID 165);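 note: 0% = growth equal to vehicle treated cultures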
- Run parameters: S. cerevisiae cln2 rad14 strain, at 50.0 µM, hits give high values
Compounds without any hit were thinned out: in the full panel of roughly 79,000, 15% have a hit.
Known growth inhibition of a selection of compounds
Measure: growth inhibition (%)

* Clc1ccc(N=Cc2ccccc2Cl)cc1 | -13.7
* c1ccc([Si]2(c3ccccc3)[Si](c3ccccc3)(c3ccccc3)[Si](c3ccccc3)(c3ccccc3)[Si]2(c2ccccc2)c2ccccc2)cc1 | -1.45
* CC1=CC(N)C2CC1C2(C)C (centres undefined) | -37.6
* CCCCCCCCCCCC(=O)NC(=S)Nc1ccc(N(C)C(C)=O)cc1 | 87.6
* CCCCCCCCCCCCS(=O)(=O)CC(=O)O | -84.2
* CCC(=O)OCC(C)COC(=O)CC | 1.05
* CC(C(O)C(F)(F)F)[N+](=O)[O-] (centres undefined) | -5.2
* CCOC(=O)C(=O)N1Cc2cc3c(cc2C2CC(O)C(O)CC21)OCO3 (centres undefined) | 6.05
* Cc1ccc(Cl)cc1NC(=O)Oc1cc(C)c(Cl)c(C)c1 | 6.85
* O=c1c(Cc2ccccc2)c(O)cc2n1CCC2 | 8.75
* CN1CCN(C(=S)N(C(=O)c2ccc(Cl)cc2)c2ccccc2)CC1 | -6.8
* CC(=O)/C(=C/n1c(=S)sc2ccccc21)C(=O)Nc1ccccc1C | 15.9
* Clc1ccc(-c2nnc3n2NC(c2ccccc2)S3)c(Cl)c1 (centres undefined) | 10.8
* CCOc1c(N2CCOCC2)c(=O)c1=O | 6.65
* Cc1cc2c(cc1C)NS(=O)(=O)N2 | -21.7
* CNC(=S)Nc1cccc(C)c1 | -8.55
* CCc1ccccc1NC(=O)N1CCOCC1 | 3.05
* O=C(N/N=C/c1ccc(Cl)cc1)c1cc(-c2ccccc2)nc2ccccc12 | 21.7
* O=S(=O)(N/N=C/c1ccc(Cl)c(Cl)c1)c1ccccc1 | -28.4

###

- Test summary: NCI Yeast Anticancer Drug Screen. Data for the mec2-1 strain (AID 157)
- Run parameters: S. cerevisiae mec2-1 strain, at 50.0 µM, hits give high values
- Procedure: Growth inhibition of yeast strains with defined genetic alterations is measured as a screen for potential anti-cancer activity. Selected strains with alterations in DNA damage repair or cell cycle control were exposed to compounds and growth inhibition was measured relative to vehicle treated controls. The strain used in this assay is mec2-1
The panel holds about 79,000 compounds, 15% with a hit somewhere; the sample as a whole holds those more often. Active and inactive are the calls of the source. No stated cut-off is given here; in the data, active means growth inhibition above about 70%; inactive means the rest.
Measure: growth inhibition

- Clc1ccc(N=Cc2ccccc2Cl)cc1: 16.1% (inactive)
- CCOC(=O)CCN(CCC(=O)OCC)Cc1cc(Cl)c2cccnc2c1O: 98.6% (active)
- NNC(=O)c1ccccc1O: 14.4% (inactive)
- NC1=NC=N/C(=N\c2ccccn2)C1N (stereo not given): -9.95% (inactive)
- O=C(NCCCCCCNC(=O)OCCSCCn1cc(C(=O)NC(=O)OCc2ccccc2)c(=O)[nH]c1=O)OCCSCCn1cc(C(=O)NC(=O)OCc2ccccc2)c(=O)[nH]c1=O: -23.6% (inactive)
- CN1CCC2c3c([nH]c4ccccc34)C(C)(C)OC2C1 (stereo not given): -35.9% (inactive)
- Cn1c2nc(=O)n(-c3ccccc3)c(=O)c-2nc2c1CCCC2: -10.7% (inactive)
- C/C(=N/NC(=O)C1CCCO1)c1ccc(C)cc1 (stereo not given): -6.5% (inactive)
- Cc1cc(C)c(NC(=O)C(C)(C)C)c(C)c1: -12.9% (inactive)
- Cc1cc(S(=O)(=O)Nc2n[nH]c(Nc3ccccc3)n2)c(S)cc1Cl: 9% (inactive)
- [N-]=[N+]=Nc1ccccc1Oc1ccccc1: -18.1% (inactive)
- FC(F)(F)c1ccc(C2ON=C(c3ccccc3)N2C23CC4CC(CC(C4)C2)C3)cc1 (stereo not given): 4.1% (inactive)
- COc1cc(/C(C#N)=C/c2ccccn2)c([N+](=O)[O-])cc1OC: -2% (inactive)
- NC(=S)c1ccc[n+](Cc2c(Cl)cccc2Cl)c1: 3.6% (inactive)
- C/C=C(\C(=C\C)c1ccc(OC(=O)c2ccccc2)c(C2CCCCC2)c1)c1ccc(O)c(C2CCCCC2)c1: 34.5% (inactive)
- O=C(O)/C=C(\Br)C(=O)O: -4.1% (inactive)
- O=C(Nc1ccc(Cl)cc1)C(=O)C1=C(O)c2ccccc2OC1: -5.95% (inactive)
- CCOC(=O)c1cc2c(C(=O)c3ccc([N+](=O)[O-])cc3)c(C(C)=O)ccc2[nH]1: -0.45% (inactive)
- c1ccc(-c2ccc[n+](C[n+]3cccc(-c4ccccn4)c3)c2)nc1: -10.5% (inactive)
- Nc1cccc([N+](=O)[O-])c1O: 2.45% (inactive)

###

This section presents compounds with their documented growth inhibition values.
- Test summary: NCI Yeast Anticancer Drug Screen. Data for the cln2 rad14 strain (AID 165);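 note: 0% = growth equal to vehicle treated cultures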
- Run parameters: S. cerevisiae cln2 rad14 strain, at 50.0 µM, hits give high values
The panel holds about 79,000 compounds, 15% with a hit somewhere; the sample as a whole holds those more often.
Measure: growth inhibition (%)

• COc1cc2ccccc2oc1=O = 15.2
• Cn1nc(-c2ccccc2)c(C(=O)/C=C/c2ccc(Cl)cc2)c(N2CCCCC2)c1=O = 1.75
• O=C(CCCCCC(=O)CC(=O)CCc1ccccc1)CC(=O)CCc1ccccc1 = 15.4
• CCC(/C=N/Nc1ccc([N+](=O)[O-])cc1[N+](=O)[O-])(CC)CC = 0.25
